- System: MOLM-13 cells
- method_notes: MOLM-13 Uridine Rescue Assay
- Format: cell-based
- conditions_used: Homo sapiens; MOLM-13 cell proliferation with 100 μM Uridine added, 72 Hours of culture
Please provide measured pIC50 for the entries that follow.
Field pIC50 (float): negative decimal logarithm of the concentration in molar.

Q. Item `CN1CCN(c2ncc([C@H]3c4[nH]c5ccc(Cl)cc5c4CCN3c3nc(C(F)(F)F)nc(C(F)(F)F)n3)cn2)CC1` has what recorded pIC50?
A. 5.51

Q. Try this compound next: `Cc1nc(C)nc(N2CCc3c([nH]c4ccc(Cl)cc34)[C@@H]2c2ccc(C)c(F)c2F)n1`
A. 5.56

Q. Try this compound next: Cc1ccc(C2c3[nH]c4ccc(Cl)cc4c3CCN2c2nccc(C(F)(F)F)n2)cc1 (stereo not shown)
A. 4.70

Q. Try this compound next: Cc1ccc(C2c3[nH]c4c(O)cc(Cl)cc4c3CCN2c2nccc(C(F)(F)F)n2)c(F)c1F (stereo not shown)
A. 5.17

* * *

Please provide measured pIC50 for the entries that follow.
- System: MOLM-13 cells
- method_notes: MOLM-13 Cell Proliferation Assay (indicator of DHODH inhibition)
- Format: cell-based
- conditions_used: Homo sapiens, 72 Hours of culture, CellTiter-Glo, no uridine
Field pIC50 (float): negative decimal logarithm of the concentration in molar.

Q. Item `Clc1ccc2[nH]c3c(c2c1)CCN(c1ncc(-c2ccccc2)cn1)[C@H]3c1cnc(N2CCOCC2)nc1` has what recorded pIC50?
A. 8.39

Q. Try this compound next: Cc1nc(N2CCc3c([nH]c4ccc(Cl)c(F)c34)C2c2ccc(Cl)cc2)ncc1F (stereo not shown)
A. 8.17

Q. Try this compound next: Fc1cc(-n2ccnc2)ccc1C1c2[nH]c3ccc(Cl)cc3c2CCN1c1ncccn1 (stereo not shown)
A. 7.23

Q. Try this compound next: Fc1cnc(N2CCc3c([nH]c4cc(F)c(Cl)cc34)C2c2ccc(Cl)cc2)nc1 (stereo not shown)
A. 7.45

* * *

- Test system: MOLM-13 cells
- method_notes: MOLM-13 Cell Proliferation Assay (indicator of DHODH inhibition)
- Format: cell-based
- conditions_used: Homo sapiens, 72 Hours of culture, CellTiter-Glo, no uridine
Please provide measured pIC50 for the entries that follow.
Field pIC50 (float): negative decimal logarithm of the concentration in molar.

Q. Item Nc1ncc(C2c3[nH]c4ccc(Cl)c(F)c4c3CCN2c2nccc(C(F)(F)F)n2)cn1 (stereo not shown) [Compound 225] has what recorded pIC50?
A. 7.74

Q. Try this compound next: Cc1ccc([C@H]2c3[nH]c4ccc(Cl)cc4c3CCN2c2nc(C)c(F)c(C#N)n2)cc1 [Compound 417]
A. 8.72

Q. Try this compound next: FC(F)c1ccnc(N2CCc3c([nH]c4ccc(Cl)cc34)C2c2cnc(N3CCOCC3)nc2)n1 (stereo not shown) [Compound 334]
A. 7.89

Q. Try this compound next: Cc1nc(C)nc(N2CCc3c([nH]c4c(N)cc(Cl)cc34)C2c2ccc(C)c(F)c2F)n1 (stereo not shown) [Compound 304]
A. 7.03

* * *

- System: MOLM-13 cells
- method_notes: MOLM-13 Cell Proliferation Assay (indicator of DHODH inhibition)
- Assay type: cell-based
- conditions_used: Homo sapiens, 72 Hours of culture, CellTiter-Glo, no uridine
Please provide measured pIC50 for the entries that follow.
Field pIC50 (float): negative decimal logarithm of the concentration in molar.

Q. Item `FC(F)(F)c1nc(N2CCc3c([nH]c4ccc(Cl)cc34)[C@@H]2c2cnc(N3CCOCC3)nc2)nc(C(F)(F)F)n1` has what recorded pIC50?
A. 9.52

Q. Try this compound next: Cc1ccc(C2c3[nH]c4cc(F)c(Cl)cc4c3CCN2c2ncc(F)c(C)n2)cc1 (stereo not drawn)
A. 7.92

Q. Try this compound next: Cc1ccc(C2c3[nH]c4ccc(Cl)c(F)c4c3CCN2c2ncc(F)c(C)n2)cc1 (stereo not drawn)
A. 8.25

Q. Try this compound next: C=Cc1ccc(C2c3[nH]c4cc(F)c(Cl)cc4c3CCN2c2ncc(F)cn2)cc1 (stereo not drawn)
A. 7.68

Q. Try this compound next: `FC(F)(F)c1cc(C(F)(F)F)nc(N2CCc3c([nH]c4ccc(Cl)cc34)[C@@H]2c2cnc(N3CCOCC3)nc2)n1`
A. 9.52

Q. Try this compound next: `CN1CCN(c2ncc([C@H]3c4[nH]c5ccc(Cl)cc5c4CCN3c3nc(C(F)(F)F)cc(C(F)(F)F)n3)cn2)CC1`
A. 9.30

Q. Try this compound next: N#Cc1ccc(C2c3[nH]c4c(F)cc(Cl)cc4c3CCN2c2ncc(F)cn2)cc1 (stereo not drawn)
A. 6.92

Q. Try this compound next: `Cc1nc(N2CCc3c([nH]c4ccc(Cl)cc34)[C@@H]2c2cnc(N3CCOCC3)nc2)nc(C#N)c1F`
A. 8.77

Q. Try this compound next: Cc1ccc(C2c3[nH]c4cc(F)c(Cl)cc4c3CCN2c2nc(Cl)cc(Cl)n2)cc1 (stereo not drawn)
A. 8.74

Q. Try this compound next: COc1ccc2[nH]c3c(c2c1)CCN(c1nccc(C(F)(F)F)n1)C3c1cnc(N2CCOCC2)nc1 (stereo not drawn)
A. 8.15

Q. Try this compound next: Cc1ccc(C2c3[nH]c4ccc(Cl)c(F)c4c3CCN2c2ncc(F)c(C#N)n2)c(F)c1F (stereo not drawn)
A. 9.30

Q. Try this compound next: Cc1nc(C)nc(N2CCc3c([nH]c4ccc(Cl)cc34)C2c2ccc(C#N)cc2F)n1 (stereo not drawn)
A. 8.31

Q. Try this compound next: `Cc1ccc([C@@H]2c3[nH]c4ccc(Cl)cc4c3CCN2c2nccc(C#N)n2)c(F)c1F`
A. 7.24

Q. Try this compound next: Cc1ccc(C2c3[nH]c4ccc(Cl)cc4c3CCN2c2nc(C(F)(F)F)nc(C(F)(F)F)n2)c(F)c1F (stereo not drawn)
A. 9.70

Q. Try this compound next: Fc1ccc(C2c3[nH]c4cc(F)c(Cl)cc4c3CCN2c2ncc(Cl)cn2)cc1 (stereo not drawn)
A. 7.22
